- Tested on: Haemophilus influenzae
- Experiment Notes: Antibacterial activity against Haemophilus influenzae 2 after 20 hrs by agar dilution method
- Format: functional
- Experimental Context: Haemophilus influenzae, 2, 20 h
I'd appreciate it if you could supply MIC values for the items below.
Provide only the numeric value, understood in µg/mL.

Entry CCC(=O)O[C@@H]1CC(=O)O[C@@H](C/C=C/c2cnc3ccccc3c2)CCCN(C)C[C@H](O)[C@H](C)C[C@H](CC=O)[C@H](O[C@@H]2O[C@H](C)[C@@H](O[C@H]3C[C@@](C)(OC(=O)CC)[C@@H](OC(=O)N(C)C)[C@H](C)O3)[C@H](N(C)C)[C@H]2O)[C@H]1OC ; MIC = 32

The molecule listed as CCNC(=O)O[C@H]1[C@H](C)O[C@@H](O[C@H]2[C@H](N(C)C)[C@@H](O)[C@H](O[C@H]3[C@@H](CC=O)C[C@@H](C)[C@@H](O)CN(C)CCC[C@H](C/C=C/c4ccc(N)nc4)OC(=O)C[C@@H](O)[C@@H]3OC)O[C@@H]2C)C[C@@]1(C)OC(=O)CC shows MIC equal to 8

For reference, reported MIC for CCCC(=O)O[C@H]1[C@H](C)O[C@@H](O[C@H]2[C@H](N(C)C)[C@@H](O)[C@H](O[C@H]3[C@@H](CC=O)C[C@@H](C)[C@@H](O)/C=C/C=C/C[C@@H](C)OC(=O)C[C@@H](O)[C@@H]3OC)O[C@@H]2C)C[C@@]1(C)OC(=O)CC stands at 8

Item: CCC(=O)O[C@@H]1CC(=O)O[C@@H](C/C=C/c2ccc3ccccc3c2)CCCN(C)C[C@H](O)[C@H](C)C[C@H](CC=O)[C@H](O[C@@H]2O[C@H](C)[C@@H](O[C@H]3C[C@@](C)(O)[C@@H](OC(=O)CC)[C@H](C)O3)[C@H](N(C)C)[C@H]2O)[C@H]1OC | MIC: 16

// MIC lookup, molecule = CCNC(=O)O[C@H]1[C@H](C)O[C@@H](O[C@H]2[C@H](N(C)C)[C@@H](O)[C@H](O[C@H]3[C@@H](CC=O)C[C@@H](C)[C@@H](O)CN(C)CCC[C@H](C/C=C/c4cccnc4)OC(=O)C[C@@H](OC(=O)CC)[C@@H]3OC)O[C@@H]2C)C[C@@]1(C)OC(=O)CC , result: 16

Notebook: CCNC(=O)O[C@H]1[C@H](C)O[C@@H](O[C@H]2[C@H](N(C)C)[C@@H](O)[C@H](O[C@H]3[C@@H](CC=O)C[C@@H](C)[C@@H](O)CN(C)CCC[C@H](C/C=C/c4cncc5ccccc45)OC(=O)C[C@@H](OC(=O)CC)[C@@H]3OC)O[C@@H]2C)C[C@@]1(C)OC(=O)CC , MIC read as 16

Entry CCNC(=O)O[C@H]1[C@H](C)O[C@@H](O[C@H]2[C@H](N(C)C)[C@@H](O)[C@H](O[C@H]3[C@@H](CC=O)C[C@@H](C)[C@@H](O)CN(C)CCC[C@H](C/C=C/c4ccc(N)nc4)OC(=O)C[C@@H](OC(=O)CC)[C@@H]3OC)O[C@@H]2C)C[C@@]1(C)OC(=O)CC — recorded MIC = 16

The molecule listed as CC[C@H]1OC(=O)[C@H](C)C(=O)[C@H](C)[C@@H](O[C@@H]2O[C@H](C)C[C@H](N(C)C)[C@H]2O)[C@](C)(OC)C[C@@H](C)C(=O)[C@H](C)[C@H]2N(CCCCn3cnc(-c4cccnc4)c3)C(=O)O[C@]12C has a reported MIC of 2

Reported MIC for CCC(=O)O[C@@H]1CC(=O)O[C@@H](C/C=C/c2cnc3ccccc3c2)CCCN(C)C[C@H](O)[C@H](C)C[C@H](CC=O)[C@H](O[C@@H]2O[C@H](C)[C@@H](O[C@H]3C[C@@](C)(O)[C@@H](OC(=O)CC)[C@H](C)O3)[C@H](N(C)C)[C@H]2O)[C@H]1OC was 8

Record CCC(=O)O[C@@H]1CC(=O)O[C@@H](C/C=C/c2cnc3ccccc3c2)CCCN(C)C[C@H](O)[C@H](C)C[C@H](CC=O)[C@H](O[C@@H]2O[C@H](C)[C@@H](O[C@H]3C[C@@](C)(OC(=O)CC)[C@@H](OC(=O)NC)[C@H](C)O3)[C@H](N(C)C)[C@H]2O)[C@H]1OC . Reported MIC: 8

Noted for CCC(=O)O[C@@H]1CC(=O)O[C@H](C)C/C=C/C=C/[C@H](OC(C)=O)[C@H](C)C[C@H](CC=O)[C@H](O[C@@H]2O[C@H](C)[C@@H](O[C@H]3C[C@@](C)(OC(C)=O)[C@@H](OC(=O)CC)[C@H](C)O3)[C@H](N(C)C)[C@H]2O)[C@H]1OC : its MIC reads 16

Lookup result for CCNC(=O)O[C@H]1[C@H](C)O[C@@H](O[C@H]2[C@H](N(C)C)[C@@H](O)[C@H](O[C@H]3[C@@H](CC=O)C[C@@H](C)[C@@H](O)CN(C)CCC[C@H](C/C=C/c4ccc5ccccc5c4)OC(=O)C[C@@H](OC(=O)CC)[C@@H]3OC)O[C@@H]2C)C[C@@]1(C)OC(=O)CC ; measured MIC: 16

Consider CCC(=O)O[C@@H]1CC(=O)O[C@@H](C/C=C/c2cnc3ccccc3c2)CCCN(C)C[C@H](O)[C@H](C)C[C@H](CC=O)[C@H](O[C@@H]2O[C@H](C)[C@@H](O[C@H]3C[C@@](C)(OC(=O)CC)[C@@H](OC(=O)NC(C)C)[C@H](C)O3)[C@H](N(C)C)[C@H]2O)[C@H]1OC . Its measured MIC is 32

Field MIC (entry CCC(=O)O[C@@H]1CC(=O)O[C@@H](C/C=C/c2cnc3ccccc3c2)CCCN(C)C[C@H](O)[C@H](C)C[C@H](CC=O)[C@H](O[C@@H]2O[C@H](C)[C@@H](O[C@H]3C[C@@](C)(OC(=O)CC)[C@@H](OC(=O)NCCO)[C@H](C)O3)[C@H](N(C)C)[C@H]2O)[C@H]1OC ) reads 16
